tested on: BT474; assay: Cytotoxicity assay (SRB), BT474; assay type: cell-based; details: Homo sapiens, BT-474, 144 h, BT474 cells, SRB, 6 days; read-out: In Vitro Cellular Activity IC50 BT474
valueType: IC50 (µM)
# unit: µM | format: bare number

The molecule CCCOc1ccc(CN/C=C2\C(=O)NC(=O)c3ccc(-c4ccc(F)cc4)cc32)cc1O , when measured on BT474, yielded IC50 of 16

Form field, IC50 with BT474, item Cl.O=C1NC(=O)c2ccc(Br)cc2C1=NNc1ccc(CN2CCCCC2)cc1 [Example 144, Hydrochloride] : 3.2

Known value: BT474 IC50 of the molecule CN1CCN(c2ccc(N/C=C3\C(=O)NC(=O)c4ccc(F)cc43)cc2)CC1 equals 3.23

# CN(C)CCCN/C=C1\C(=O)NC(=O)c2ccc(Br)cc21 with BT474: IC50 is 37

The measured IC50 that CCCOc1ccc(CN/C=C2\C(=O)NC(=O)c3cc(OC)c(Br)cc32)cc1O showed for BT474 is 2

The reported BT474 IC50 of COc1cc(CN/C=C2\C(=O)NC(=O)c3ccc(-c4ccccc4)cc32)cc(O)c1OC is 3.2

// molecule O=C1NC(=O)c2ccc(I)cc2/C1=C/Nc1ccc(CN2CCCC2)cc1 , assay BT474, IC50 value: 0.9
